Values compiled from paper PMC7734321.

Biological target: T1, Nei (endonuclease VIII) (Escherichia coli, UniProt P50465 2-263)
T1 sequence: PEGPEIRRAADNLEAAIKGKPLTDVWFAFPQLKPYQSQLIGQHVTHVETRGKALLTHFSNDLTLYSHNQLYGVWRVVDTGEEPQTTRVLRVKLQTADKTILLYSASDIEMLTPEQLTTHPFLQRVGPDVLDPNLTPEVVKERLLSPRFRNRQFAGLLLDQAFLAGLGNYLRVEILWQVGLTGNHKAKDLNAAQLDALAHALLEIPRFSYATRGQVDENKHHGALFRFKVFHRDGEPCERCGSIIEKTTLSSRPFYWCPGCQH
Test: MST; MST: 50 mM Tris-HCl pH 7.5, 50 mM KCl, 1 mM EDTA, 1 mM DTT, 7% glycerol, 25 C, 10 min, 0.5 uM DNA; authors call Kd values estimates only
Conditions: protein: recombinant; tags: none (native form without tags); label: 5'-FAM, 3'-BHQ1; G-quadruplex
Parameter measured: pKd
The quantity pKd is defined as the negative base-10 logarithm of the molar concentration.

Problem: Could you tell me which pKd is on file for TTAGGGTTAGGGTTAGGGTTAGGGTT (structured_DNA, T14 = thymine glycol) [Q4-Tg] ?
Result: 6.10
